Measured Papp at 5 h by item
Assay: PAMPA permeability with subject invention membrane
Type: in vitro ADME
Settings: PAMPA; PBS pH 7.4, room temperature, no agitation, 5 hours; read-out: Pe Subject Invention Membrane Results
Please respond with the number in ×10⁻⁶ cm/s and leave the unit unwritten.

// solved cases for Papp at 5 h follow
[
  {
    "Molecule": "CCCC(=O)Nc1ccc(OCC(O)CNC(C)C)c(C(C)=O)c1 (stereo not shown)",
    "Papp at 5 h / ×10⁻⁶ cm/s": 0.21
  },
  {
    "Molecule": "CN1C(C(=O)Nc2ccccn2)=C(O)c2ccccc2S1(=O)=O",
    "Papp at 5 h / ×10⁻⁶ cm/s": 4.02
  },
  {
    "Molecule": "N=C(N)NC(=O)c1nc(Cl)c(N)nc1N [amiloride]",
    "Papp at 5 h / ×10⁻⁶ cm/s": 0.08
  }
]

-- ask Any idea what its Papp at 5 h is? The molecule is CC(C)(C)NCC(O)COc1cccc2c1CC(O)C(O)C2 (stereo not shown)
-- reply 0.16

-- ask Any idea what its Papp at 5 h is? The molecule is CC(C)(C)NC[C@H](O)COc1nsnc1N1CCOCC1
-- reply 4.45

-- ask Any idea what its Papp at 5 h is? The molecule is COCCc1ccc(OCC(O)CNC(C)C)cc1 (stereo not shown)
-- reply 4.29

-- ask Any idea what its Papp at 5 h is? The molecule is Clc1cccc(Cl)c1N=C1NCCN1
-- reply 4.92

-- ask Any idea what its Papp at 5 h is? The molecule is O=C(O)Cc1ccccc1Nc1c(Cl)cccc1Cl
-- reply 6.3

-- ask Any idea what its Papp at 5 h is? The molecule is COc1ccc2c(c1)c(CC(=O)O)c(C)n2C(=O)c1ccc(Cl)cc1
-- reply 6.24

-- ask Any idea what its Papp at 5 h is? The molecule is NC(=O)N1c2ccccc2C=Cc2ccccc21 [carbamazepine]
-- reply 7.79
